assay: Acid dissociation constant was determined; assay type: ADME
Measure: pKa

CC(C)NCC(O)COc1ccc(OCCn2cncn2)cc1 (stereo not given)    3.2
CC(C)NCC(O)COc1ccc(CCn2cccn2)cc1 (stereo not given)    2

[I] CC(C)NCC(O)COc1ccc(OCn2cccn2)cc1 (stereo not given)
[II] CC(C)NCC(O)COc1ccc(Cn2ccnc2)cc1 (stereo not given)
[III] CC(C)NCC(O)COc1ccc(CCn2cncn2)cc1 (stereo not given)
Request: Ordering: ascending pKa. Please list the labels in the order you were asked to rank them.
Result: I, III, II

* * *

molecular target: Adrenergic receptor beta (Rattus norvegicus) (UniProt P18090+P10608+P26255); assay: Beta agonist activity against heart rate in rats; format: functional, tissue-based
Measured ED30 of individual entries

# example entries with known answers
CC(C)NCC(O)COc1ccc(Cn2ccnc2)cc1 (configuration not stated)    > 1 mg/kg
CC(C)NCC(O)COc1ccc(OCCn2cnc3ccccc32)cc1 (configuration not stated)    > 1 mg/kg

Next molecule, please.
Given item CC(C)NCC(O)COc1ccc(OCCn2ncc3ccccc32)cc1 (configuration not stated) , the value recorded as its ED30 is > 1 mg/kg
